src = the array DNA melting data of Ke et al. (doi:10.1101/2024.01.08.574731)

- test-summary: melting temperature; fluorescence melt of hairpins on a sequencing array, two-state fit, raised by 9.35 °C to match UV melts
- reported-conditions: sodium 0.088 M
measurement-name: Tm (°C)
Answer format: numeric, °C implied, no suffix.

Look at this sequence and give its reported Tm. GCGCTGCGAAAGCACTGC ((..(((....)))..))
41

Look at this sequence and give its reported Tm. GTTGAGCCGAAAGGCAAC (((..(((....))))))
38.8

Look at this sequence and give its reported Tm. GGTCGAGGAAACTTGACC ((((.((....)).))))
51.9

Look at this sequence and give its reported Tm. GCCGAAGGAAACTTCAGC ((.((((....)))).))
32.9

Look at this sequence and give its reported Tm. GCGATTCGAAAGAACCGC (((.(((....))).)))
53.1

Look at this sequence and give its reported Tm. GATCCGGAGCGGATC ((((((...))))))
56.1

Look at this sequence and give its reported Tm. GCAGCATCGAAAGATTGC (((..(((....))))))
33.9

Look at this sequence and give its reported Tm. GATCATATCATGATC ((((((...))))))
50.4

Look at this sequence and give its reported Tm. TCGATGAAAATCGA (((((....)))))
47.4

Look at this sequence and give its reported Tm. GCGCTGCGAAAGCGCCGC (((..((....))..)))
61.6

Look at this sequence and give its reported Tm. GAGTGAGGAAACTCGCTC (((.(((....))).)))
50.6

Look at this sequence and give its reported Tm. GAATTGGAAACAATTC ((((((....))))))
47.3

---

What Tm was measured for each of the following?
- test-summary: melting temperature; fluorescence melt of hairpins on a sequencing array, two-state fit, raised by 9.35 °C to match UV melts
- reported-conditions: sodium 0.088 M
Answer format: numeric, °C implied, no suffix.

Look at this sequence and give its reported Tm. GGATTTCGAAAGAATCC (((.(((....))))))
41.3

Look at this sequence and give its reported Tm. GATTAAGGAAACTTAATC (((((((....)))))))
45.5

Look at this sequence and give its reported Tm. GCATAACGAAAGTTTGC (((.(((....))))))
46

Look at this sequence and give its reported Tm. GGCTCCGAAAGGATAGCC ((((((....)))..)))
52.4

Look at this sequence and give its reported Tm. GACCCCGAAAGGGCGGTC ((((((....)))..)))
45.9

Look at this sequence and give its reported Tm. GGATCCCGAAAGGGTCC (((.(((....))))))
60.1

Look at this sequence and give its reported Tm. GATCATCCCAATGATC ((((((....))))))
48.2

Look at this sequence and give its reported Tm. GTAACACCGAAAGGTTAC (((..(((....))))))
35.6

Look at this sequence and give its reported Tm. GATCGCACATGCGATC ((((((....))))))
68.3

Look at this sequence and give its reported Tm. GCTTACGGAAACGTAAAC (.(((((....))))).)
33.3

Look at this sequence and give its reported Tm. GAAGGAGAAATCCTTC ((((((....))))))
46.3

Look at this sequence and give its reported Tm. GTCTCTGGAAACGGAGAC (((((.(....).)))))
50.8

Look at this sequence and give its reported Tm. GTTTAAGGAAACTTGAAC (((.(((....))).)))
35

Look at this sequence and give its reported Tm. GCGGCAGACCGC ((((....))))
56.2

Look at this sequence and give its reported Tm. GATCTTCTGAAGATC ((((((...))))))
43.6

Look at this sequence and give its reported Tm. GCGAGGTTCGC ((((...))))
48.7

Look at this sequence and give its reported Tm. CTGACGAAAGTCAG (((((....)))))
65

Look at this sequence and give its reported Tm. GACATCGAAAGATGTC ((((((....))))))
64.4

Look at this sequence and give its reported Tm. GGTCGGGGAAACCCGGCC ((.((((....)))).))
66.2

Look at this sequence and give its reported Tm. GTCGGCGAAAGCCTGGAC ((((((....)))..)))
45

Look at this sequence and give its reported Tm. GCAACGCGAAAGCGCAGC ((..(((....)))..))
48.1

Look at this sequence and give its reported Tm. GACCAGGGAAACCTGGTC (((((((....)))))))
67.5

Look at this sequence and give its reported Tm. GATCACAAGGTGATC ((((((...))))))
58.4

Look at this sequence and give its reported Tm. GCACGGCGAAAGCCTTGC (((.(((....))).)))
54.2

Look at this sequence and give its reported Tm. GATCGGATTCCCGATC ((((((....))))))
55.5

Look at this sequence and give its reported Tm. GGGTTTGGAAACGAACTC (.(((.(....).))).)
32.4
